B1: TPR 5TU (parent)
chain: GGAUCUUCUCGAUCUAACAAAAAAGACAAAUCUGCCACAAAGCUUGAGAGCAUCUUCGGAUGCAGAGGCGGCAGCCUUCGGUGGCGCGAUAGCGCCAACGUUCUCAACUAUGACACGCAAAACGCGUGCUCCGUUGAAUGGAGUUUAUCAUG

Variants of: B1
Test: polymerase ribozyme fitness, log enrichment relative to wild type (log ratio); higher = more active; in vitro selection for triplet polymerase activity
Variants at the floor of the assay were thinned out.
parameter measured: polymerase ribozyme fitness (log ratio)
Answers are plain numbers.

For orientation, consider the following solved cases.
> print(dat)
            mutation.code                       parameter.measured  value.reported
1               C75U A91G  polymerase ribozyme fitness (log ratio)           -3.07
2                    U82G  polymerase ribozyme fitness (log ratio)            0.17
3  G92A A120G A121C U148C  polymerase ribozyme fitness (log ratio)           -4.16

Go through the items and report each one's polymerase ribozyme fitness (log ratio).
1. U56A G58C C93A G124A
2. A37G C95A U127G
3. G59A C93G
4. G59A G83U

Completion:
1: -2.36; 2: -4.15; 3: -3.78; 4: -1.06

Go through the items and report each one's polymerase ribozyme fitness (log ratio).
1. A20U U56A A73G G94A U101A
2. A21G C87U G140U
3. A12G A17G A19G U53A U55A G81U G84U G117U
4. U55G C85A
5. C51G G84A C95G A119G

Completion:
[-2.45, -3.6, -4.04, -2.4, -2.85]

Go through the items and report each one's polymerase ribozyme fitness (log ratio).
1. A19U C105G
2. U82G C96U A137C
3. C43U G86U
4. C85G G92U G136A G141A
5. C85U C99G G136U

Completion:
-1.81
-3.87
-4.15
-3.06
-2.88

Go through the items and report each one's polymerase ribozyme fitness (log ratio).
1. U31A G94A
2. C27A U33G A39G A60C C93U U127C G140A

Completion:
-0.349
-4.14

Go through the items and report each one's polymerase ribozyme fitness (log ratio).
1. A20U C93A
2. C76A A98U

Completion:
[-2.86, -0.0442]

Go through the items and report each one's polymerase ribozyme fitness (log ratio).
1. A21U G50C
2. C57G A121U U135C
3. C32G C35A
4. C96G A97U
5. A37G C96U C105G

Completion:
[-3.57, -2.26, -3.92, -1.83, -3.63]

Record A16C G86U , field polymerase ribozyme fitness (log ratio): -2.65

Sourced from the RNAGym collection of RNA variant scans (doi:10.1073/pnas.2313332121)
